I'd appreciate it if you could supply TGI values for the items below.
system: HOP-62 NSCLC; assay: NCI tumour cell line growth inhibition, 48 h
One number for each entry, in µM.

Completed entries (count: 3):
[[record]]
compound = "C=CC(C)(C)n1cc(C2=C(O)C(=O)C(c3c(CC=C(C)C)[nH]c4ccccc34)=C(O)C2=O)c2ccccc21"
measured_property = "TGI"
unit_name = "µM"
endpoint_value = 2.63

[[record]]
compound = "COc1cc2c(cc1OC)-c1ncc3cc(OC)c(OC)c(OC)c3c1C2"
measured_property = "TGI"
unit_name = "µM"
endpoint_value = 86.7

[[record]]
compound = "COc1ccccc1N1CCN(CCCOc2ccc(C(=O)/C=C3/C(=O)Nc4ccccc43)cc2)CC1"
measured_property = "TGI"
unit_name = "µM"
endpoint_value = 54.8


Go through the list and state TGI for each entry.
1. CC1OC(OC2C[C@](O)(C(=O)CBr)Cc3c(O)c4c(c(O)c32)C(=O)c2ccccc2C4=O)C(F)C(O)C1O (stereo partly specified)
2. COc1cc(C2SCC(=O)N2NC(=O)c2ccc(NC(C)=O)cc2OC)ccc1O (stereo unspecified)

1: 66; 2: 36.7

// for each compound in input: emit TGI
1. COc1cc2c3c(c1OC)C(=O)C(=O)C1=C3N(CCC1)CC2
2. CCNC1=C(NC(=O)CCl)C(=O)c2ccccc2C1=O
3. CCCCC(N)CSSCC(N)CCCC (stereo unspecified)
4. C=C(C1=CC(=O)C(C)(C)O1)[C@@H]1CC=C([C@@H]2CC[C@H]3[C@@]2(C)CC[C@H]2C(C)(C)C(=O)[C@H](OC(=O)CC(C)(O)CC(=O)O)C[C@]32C)[C@H](O)O1 (stereo partly specified)

[96.9, 30.2, 95.4, 35]

These entries and their values trace back to PubChem BioAssay (NCI).
